# Tested on: NCI/ADR-RES ovarian
# protocolDescription: NCI-60 one-dose screen, 48 h
# testConditions: 10 µM unless noted
The panel holds about 83,000 compounds, 20% with a hit somewhere; the sample as a whole holds those more often. Activity calls are given as the source filed them. Rule for the calls: active = growth percent below 10; inactive = the rest.
Possible outcomes: active, inactive

| molecule | answerLabel |
| --- | --- |
| N#Cc1c(-c2ccc(F)cc2)nc(SCc2ccccc2)nc1N1CCNCC1 | active |
| FC(F)(F)c1cc2c(Cl)ncnc2n1CCN1CCCCC1 | inactive |
| CC1CCc2c(sc3nc(SCC(=O)c4cccc([N+](=O)[O-])c4)n(-c4ccccc4)c(=O)c23)C1 (centres undefined) | inactive |
| O=C1CC(c2ccc(I)cc2)OC2C=Cc3ccccc3C12 (centres undefined) | inactive |
| CCCCCCCCc1ccc(C(=O)Nc2ccc(C)cc2C(=O)O)cc1 | inactive |
| COc1cc(/C=C/C(=O)c2cnn(-c3cc(=O)[nH]c4ccccc34)c2C)cc(OC)c1OC | inactive |
| O=C(Cc1c(-c2ccccc2[N+](=O)[O-])n(-c2ncnc3c2c(-c2ccccc2)c(-c2ccccc2)n3Cc2ccccc2)[nH]c1=O)c1ccc(Cl)c(Cl)c1 | inactive |
| COc1ccc(CCC2NCCc3c(Br)c4c(c(OC)c32)OCO4)cc1 (centres undefined) | active |
| Cc1ccc(S(=O)(=O)N(CCn2ccnc2[N+](=O)[O-])CCn2ccnc2[N+](=O)[O-])cc1 | inactive |

Data origin, for the record: PubChem BioAssay (NCI)
